# TEST TARGET: Acetylcholinesterase (Homo sapiens)
# Sequence (P22303 whole entry): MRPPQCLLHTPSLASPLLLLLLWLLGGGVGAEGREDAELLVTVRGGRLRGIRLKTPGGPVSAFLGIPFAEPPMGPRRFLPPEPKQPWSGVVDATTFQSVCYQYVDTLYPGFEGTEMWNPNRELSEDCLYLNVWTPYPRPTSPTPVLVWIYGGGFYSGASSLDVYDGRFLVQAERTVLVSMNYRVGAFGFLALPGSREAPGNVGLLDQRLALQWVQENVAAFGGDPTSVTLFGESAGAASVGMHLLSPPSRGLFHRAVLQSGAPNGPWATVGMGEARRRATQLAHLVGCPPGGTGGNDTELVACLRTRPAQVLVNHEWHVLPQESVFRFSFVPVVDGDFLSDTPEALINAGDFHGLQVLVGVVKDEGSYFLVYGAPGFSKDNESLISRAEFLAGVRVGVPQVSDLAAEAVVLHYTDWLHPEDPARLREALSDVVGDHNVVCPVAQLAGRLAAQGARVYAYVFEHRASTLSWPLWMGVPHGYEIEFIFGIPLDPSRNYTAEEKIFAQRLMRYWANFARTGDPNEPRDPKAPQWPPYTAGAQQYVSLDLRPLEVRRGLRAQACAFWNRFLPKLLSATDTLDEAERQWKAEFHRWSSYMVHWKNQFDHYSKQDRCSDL
VALUE KIND: pIC50
Just so you know, pIC50 here is -log10 of the concentration in molar units; reply with that number alone.

Answer with pIC50 of "COc1c(-c2ccc(O)cc2)cc2oc3cc(O)c(O)cc3c2c1O" measured for Acetylcholinesterase (Homo sapiens).
4.80

----------
# System: HSV-2
# ASSAY PROTOCOL: Selectivity index, ratio of CC50 for african green monkey Vero cells to EC50 for HSV-2 infected in African green monkey Vero cells
# Type: toxicity
# RECORDED CONDITIONS: HSV-2 infected Vero cells
Quick reference for selectivity ratio among some compounds

In the examples that follow, each entry is paired with its recorded selectivity ratio.
COc1c(-c2ccc(O)c(O)c2)cc(O)c2c1oc1cc(O)c(O)cc12 = > 48.5
COc1c(-c2ccc(O)c(O)c2)cc(O)c(-c2ccc(O)c(O)c2)c1O = > 23.8
O=c1cc(-c2ccc(O)c(O)c2)c(-c2ccc(O)c(O)c2)co1 = > 11.7
COc1c(-c2ccc(O)cc2)cc2oc3cc(O)c(O)cc3c2c1O = > 73.5
COc1c(-c2ccc(O)cc2)cc(O)c(-c2ccc(O)c(O)c2)c1O = > 43.7

Answer with selectivity ratio of "COc1c(-c2ccc(O)cc2)cc(O)c2c1oc1cc(O)c(O)cc12" measured for HSV-2.
> 15.4

Answer with selectivity ratio of "Nc1nc2c(ncn2COCCO)c(=O)[nH]1" measured for HSV-2.
> 21.9

Answer with selectivity ratio of "COc1c(-c2ccc(O)c(O)c2)cc2oc3cc(O)c(O)cc3c2c1O" measured for HSV-2.
> 41.5

----------
# System: Human alphaherpesvirus 1
# ASSAY PROTOCOL: Antiviral activity against HSV-1 infected in African green monkey Vero cells assessed as inhibition of viral replication incubated for 3 days by MTT assay
# Assay type: functional, organism-based
# RECORDED CONDITIONS: Human alphaherpesvirus 1, Vero, 72 h
EC50 strictly under 4 µM means Satisfied; at 4 µM or over means Not satisfied.

Please review the following examples before continuing.
COc1c(-c2ccc(O)c(O)c2)cc(O)c(-c2ccc(O)c(O)c2)c1O = Satisfied
O=c1cc(-c2ccc(O)c(O)c2)c(-c2ccc(O)c(O)c2)co1 = Not satisfied
Nc1nc2c(ncn2COCCO)c(=O)[nH]1 [ACYCLOVIR] = Satisfied
COc1c(-c2ccc(O)cc2)cc(O)c(-c2ccc(O)c(O)c2)c1O = Satisfied

Check if EC50 falls below 4 µM for "O=C1C(c2ccc(O)cc2)=CC(=O)c2c1oc1cc(O)c(O)cc21" .
Not satisfied

----------
# Test system: HSV-1
# ASSAY PROTOCOL: Selectivity index, ratio of CC50 for african green monkey Vero cells to EC50 for HSV-1 infected in African green monkey Vero cells
# Type: toxicity
# RECORDED CONDITIONS: HSV-1 infected Vero cells
Quick reference for selectivity ratio among some molecules

In the examples that follow, each entry is paired with its recorded selectivity ratio.
COc1c(-c2ccc(O)cc2)cc(O)c2c1oc1cc(O)c(O)cc12 = > 24.7
COc1c(-c2ccc(O)cc2)cc(O)c(-c2ccc(O)c(O)c2)c1O = > 54.4
COc1c(-c2ccc(O)c(O)c2)cc(O)c(-c2ccc(O)c(O)c2)c1O = > 26.5
Nc1nc2c(ncn2COCCO)c(=O)[nH]1 [ACYCLOVIR] = > 27.9
COc1c(-c2ccc(O)cc2)cc2oc3cc(O)c(O)cc3c2c1O = > 45.7
COc1c(-c2ccc(O)c(O)c2)cc2oc3cc(O)c(O)cc3c2c1O = > 23
COc1c(-c2ccc(O)c(O)c2)cc(O)c2c1oc1cc(O)c(O)cc12 [6'-DESMETHYLCANDIDUSIN B] = > 24.4

// next entry
# return recorded selectivity ratio for input "O=c1cc(-c2ccc(O)c(O)c2)c(-c2ccc(O)c(O)c2)co1"
> 10.8
